The measurements presented in this section are drawn from PubChem BioAssay (NCATS).

tested on: Tov-21-G; test: Primary qHTS to identify gynecologic anti-cancer compounds using libraries of approved drugs and bioactive compounds (AID 1345084); conditions: Gynecologic cancer cell panel viability, ATPlite luminescence, 48 h; series mostly up to 57.5 µM; note: nearly all actives have a fitted effect of over 55% in size
Records with an inconclusive call do not appear. Calls of active or inactive are those of the source. Calls come from the whole dose curve; as a rule, active = well fitted cell-killing curve with a large enough effect; inconclusive = small, poorly fitted or top-dose-only effect, or effect the other way; inactive = flat fitted curve, though single readings scatter.
Choose one outcome from this list and give only that: yes = active, no = inactive

The examples below pair each entry with its known result.
{"compound": "Cc1nnsc1C(=O)Nc1ccc(-n2nc(C(F)(F)F)cc2C(F)(F)F)cc1", "assigned.category": "no"}
{"compound": "COc1ccc2c(c1)C[C@H](C(=O)Nc1ccc(-c3cn[nH]c3)cc1OCCN(C)C)CO2", "assigned.category": "no"}
{"compound": "CC(=O)Nc1nc2c(Oc3cc(-c4ccc(C(F)(F)F)cc4)ncn3)cccc2s1", "assigned.category": "yes"}
{"compound": "CCCCc1nc(C)c(CC(=S)N(C)C)c(=O)n1Cc1ccc(-c2ccccc2-c2nn[nH]n2)cc1", "assigned.category": "no"}

Continue with the next compound.
Lookup: Which outcome was assigned to O=S(=O)(c1cccc2ccccc12)n1ccc2ccc(N3CCN4CCCC4C3)cc21 (stereo not given) in this test?
Found: no

----------
test system: PA-1; experiment: Primary qHTS to identify gynecologic anti-cancer compounds using libraries of approved drugs and bioactive compounds (AID 1345084); conditions: Gynecologic cancer cell panel viability, ATPlite luminescence, 48 h; series mostly up to 57.5 µM; note: nearly all actives have a fitted effect of over 55% in size
Records with an inconclusive call do not appear. Active and inactive are the calls of the source. Calls follow the shape of the dose curve; as a rule, active = well fitted cell-killing curve with a large enough effect; inconclusive = small, poorly fitted or top-dose-only effect, or effect the other way; inactive = flat fitted curve, though single readings scatter.
Choose one outcome from this list and give only that: y = active, n = inactive

{"molecule": "N#Cc1c[nH]c2c(C(=O)N3CCN(CCc4ccc(F)cc4)CC3)cccc12", "assigned.category": "n"}
{"molecule": "COc1cc(O)ccc1OCCNCC(O)COc1cccc2[nH]c3ccccc3c12 (stereo unspecified)", "assigned.category": "n"}
{"molecule": "Cn1cc(-c2cnc3ccc4ccc(CS(=O)(=O)NCc5ccccn5)cc4c(=O)c3c2)cn1", "assigned.category": "n"}
{"molecule": "C=C(C)[C@@H]1CC[C@]2(C(=O)O)CC[C@]3(C)C(CCC4[C@@]5(C)C[C@@H](O)[C@H](O)C(C)(C)C5CC[C@]43C)C12 (stereo partly specified)", "assigned.category": "n"}
{"molecule": "Cc1c(C(=O)NCCCO)cnn1-c1nc(-c2cccc(C(F)(F)F)c2)cs1", "assigned.category": "n"}
{"molecule": "C[C@H](NC(=O)C(C)(C)Oc1ccc(C(F)(F)F)cn1)[C@@H](Cc1ccc(Cl)cc1)c1cccc(C#N)c1", "assigned.category": "n"}
{"molecule": "COc1cc(-c2cc(-c3ccc(N4CCNCC4)cc3)cnc2C)cc(OC)c1OC", "assigned.category": "n"}
{"molecule": "O=C1c2c(O[C@@H]3O[C@H](CO)[C@@H](O)[C@H](O)[C@H]3O)cc(O)cc2OC1(O)Cc1ccc(O)cc1 (stereo partly specified)", "assigned.category": "n"}
{"molecule": "COc1ccc2c3ccnc4ccc(=O)n(c2c1)c43", "assigned.category": "y"}
{"molecule": "COc1ccccc1-c1cc(Nc2cccc(CS(N)(=O)=O)c2)ncn1", "assigned.category": "y"}

Continue with the next molecule.
Lookup: Which outcome was assigned to "Nc1ccc(N)c([N+](=O)[O-])c1" in this test?
Found: n
